measurement_description: Volume of distribution at steady state in beagle dog at 2.5 mg/kg, iv
Assay type: ADME, organism-based, Canis lupus familiaris
Set-up: dose 2.5 mg/kg, route intravenous
test_conditions: in vivo, read-out: Vdss
result_type: Vd (L/kg)

C[C@H](Nc1nc(Nc2cn(C)cn2)c2cnn(C)c2n1)c1ncc(F)cn1; 2.1
C[C@H](Nc1nc(Nc2cn(C)cn2)c2cc[nH]c2n1)c1ncc(F)cn1; 1.9

---

target_system: Casein kinase II subunit alpha' (Homo sapiens)
Sequence (P19784 whole entry): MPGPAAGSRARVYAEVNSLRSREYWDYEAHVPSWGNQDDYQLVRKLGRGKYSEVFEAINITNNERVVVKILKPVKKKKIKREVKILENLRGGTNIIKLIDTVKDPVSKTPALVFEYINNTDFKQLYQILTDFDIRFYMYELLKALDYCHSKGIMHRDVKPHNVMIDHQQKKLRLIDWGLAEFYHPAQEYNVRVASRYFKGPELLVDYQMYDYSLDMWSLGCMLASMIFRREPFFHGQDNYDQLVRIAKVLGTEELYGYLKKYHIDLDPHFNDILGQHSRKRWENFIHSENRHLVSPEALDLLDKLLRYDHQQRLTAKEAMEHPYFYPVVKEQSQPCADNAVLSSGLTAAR
measurement_description: Inhibition of human CK2alpha2
result_type: pIC50
The quantity pIC50 is defined as the negative base-10 logarithm of the molar concentration.

[Q] I am curious: what pIC50 value has been reported for C[C@H](Nc1nc(Nc2cn(C)cn2)c2cc[nH]c2n1)c1ncc(F)cn1 ?
[A] 8.57

The measurements presented in this section are drawn from ChEMBL document CHEMBL3112447.
